system: MS2 coat protein; assay: apparent KD of MS2 coat protein; designed switch direction (-1 OFF switch, 1 ON switch): -1; higher = weaker reporter binding; conditions: input ligand: microRNA oligo, concentration not stated
Classification field: rule met = apparent KD of MS2 coat protein at or over 30 nM; rule not met = apparent KD of MS2 coat protein under 30 nM.

# bool: apparent KD of MS2 coat protein of AUUAAAACGGCAGGAUAUCAGCGACAUGAGGAUCACCCAUGUUAGGGCUGACCCUGGAGUCUGGCUGAGAAGGGCCGACUCUCA [Riququ] (Eterna round: R96, puzzle: Exclusion NG 2) >= 30 nM
rule met

# bool: apparent KD of MS2 coat protein of UCUGCAACGCAAGGAUAUCUUAGAGUUGAAGAAAGAGAAGGUGCAGGUGAUAACAUGCCCGUAACAUGAGGAUCACCCAUGUAA [Eternabot solution 48] (Eterna round: R96, puzzle: Exclusion NG 1) >= 30 nM
rule met

# bool: apparent KD of MS2 coat protein of UAUAUAUAGUAAGGAUAUGUAAUUGUUUUAUAAACAGAAGGUACUGACAUGAGGAUCACCCAUGUUUUAGUGUGGGCAUGUAGA [JMF's solution 33] (Eterna round: R96, puzzle: Exclusion NG 1) >= 30 nM
rule met

# bool: apparent KD of MS2 coat protein of CGGGACGUCCUGAUAAUAAGACAUGAGGAUCACCCAUGUCGGCAGGAUAUCAGUCCUUACGGUUAUGAGAAGGGUCGGCAACCA [Quatis] (Eterna round: R96, puzzle: Exclusion NG 3) >= 30 nM
rule not met

# bool: apparent KD of MS2 coat protein of ACAUGAGGAUCACCCAUGUGACCACGAUGGCUGAUGUAAAGACAGGAUAUGUGUGAAUAUCUAACACAGAAGGGUCUUGACUGG [Deportation 56 - Jieux - Exclusion NG 3] (Eterna round: R96, puzzle: Exclusion NG 3) >= 30 nM
rule met

----------
test system: K4 kissing-loop RNA reporter; test: apparent KD of K4 kissing-loop reporter; higher = weaker reporter binding; conditions: Eterna round: R107; input ligand: arginine 13.2 mM;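 note: bound reporter read as fluorescence of individual clusters on recovered sequencing chips by microscopy, with normalized cluster intensities fitted with a binding model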
Reported Endpoint: apparent KD of K4 kissing-loop reporter (nM)
Use nM as the unit, but write only the number.

The sequence AUUUAGACGAGUGAUGUUCGUGUUAUUACAGAGGAUAUGCGUAAAAGCAGAAGGCUGUAUUUAUAUUUGUUAUGUAAUUUUAAAA [JR_ExcFMNA_Sub006] showed apparent KD of K4 kissing-loop reporter equal to 105

The sequence UGUCAUUGGUCGGCCGCCACUAGGACCGGGUUUUACCUAGUGAUGUUAGUAUGAACGGCCGCCACUAGGACCGGGACCGAUGACU [KL-SSTryp-B25 #DoubleAptamer] showed apparent KD of K4 kissing-loop reporter equal to 195

The sequence UGAUACCAGACGGCCGCCACUCCCGUAAGUCAAAGACUUACGAAGAGGGUUUUUUAGUGAUGUUGGAGGACCGGGUCUGGUAUCU [FiskerMod 18 - Jieux - Exclusion - Tryptophan B] showed apparent KD of K4 kissing-loop reporter equal to 256

The sequence UAAUUUAUCGCAGGAUAUAGCCAUAAACCGGUCCUAAGGGACCUUCUGGGCAGUGAUGUUGCCCGGCUAGAAGGGCGAGUUCACC [Anenlagema] showed apparent KD of K4 kissing-loop reporter equal to 105

The sequence CCUUCUCUUGAUAGUGAUGUUAUCAAGGGCAAGGAUAUCAUCUUAAUGAGAAGGUGUCCUUGAUAACAUGGAGGUCUGAAACAGA [Omei KL FMN A Exc C v5] showed apparent KD of K4 kissing-loop reporter equal to 186

The sequence GGAACUACGACGGCCGCCACUCUGUAUCCCAACGUUAAGGUCCUAACUGCAAGUGAUGUUUGUGCGAGGACCGGGUCUCCCUUGC [theeternabot_exclusion_KL_Trp_B_30] showed apparent KD of K4 kissing-loop reporter equal to 213

The sequence GCCGUACGCAUGGAUACCAGCUUGUCCGAGUGAUGUUCGGGUCUGAAUGCCGGUAAUAAGAGCCCUUGGCAGCCAUGCGUACGGC showed apparent KD of K4 kissing-loop reporter equal to 104

The sequence UGGAGUUGACGAAAAGUCAACUCCCGAGAAGGAGCGGACGAAAGUCCAGGUAGGUCGCUCGCUACCAGUGAUGUUGGUACAUAAA showed apparent KD of K4 kissing-loop reporter equal to 153

The sequence CCGGGCGGCUGAAGGAGCGGGCGGGCCCGAGUGAUGUUCGGGUGGACCGUGAGGUCCGGUGCCCAGGUAGGUCGCGGUUCCGCCC [#2 Same State - Arginine B Attempt #8 (HarryS)] showed apparent KD of K4 kissing-loop reporter equal to 183

The sequence AACGUUUUGAGAAGGAGCGCGUUAAGCAGUGAUGUUGCUGUAUUUUAUCCAAUUCAUAUAUCGCAGGUAGGUCGCUCAAUACGUA [JR_Nu_SSArginiB_Sub027] showed apparent KD of K4 kissing-loop reporter equal to 496

The sequence AUGUAUGAAUUAGGAUAUCGUGAGCCUUGCAUAUAUAUGAUAAAUGGAUAUGUCGUAGUGAUGUUACGAGAAGGAGUGUGGAGUA [KL-XFMN-B4] showed apparent KD of K4 kissing-loop reporter equal to 61.6

The sequence GCUAUGGUAGGAAGGAGCGCGGACGAUAUUUAUCGAGUGAUGUUCGAUUAAUUAAUUUUAACGCAGGUAGGUCGCCUACUAUAGC [Arginine B K4 28] showed apparent KD of K4 kissing-loop reporter equal to 82.2

----------
system: MS2 coat protein; test: apparent KD of MS2 coat protein; higher = weaker reporter binding; conditions: Eterna round: R107; input ligand: theophylline 2 mM
Can you tell me apparent KD of MS2 coat protein for the items I'm about to list?
Use nM as the unit, but write only the number.

The sequence UCGUAUGCGGCGGCCGCCACUCGCGGAUAACGAGAGCUUAACAUGAGGAUCACCCAUGUGUCAUGGAGGACCGGGCCCAUUCACA [popmullin] showed apparent KD of MS2 coat protein equal to 37.5

The sequence AGCUCGACUCGCAGCUGGAUGCCCGCUUGCCGAGGACCGGUACGGCCGCCACUCGUCACUCGACAUGAGGAUCACCCAUGUGAUA [theeternabot_exclusion_MS2_Trp_A_32] showed apparent KD of MS2 coat protein equal to 140

The sequence AUGCAUAGCACGGCCGCCACUCAAAUUAAACAUGAGGAUCACCCAUGUAACAUGGAUAAAAUAAAGAGGACCGGGUGAAAUGCAA [JR_SSTryptoB_Sub010] showed apparent KD of MS2 coat protein equal to 33.7

The sequence GGGACAUGAGGAUCACCCAUGUACCGGUCCCGAGGACCGGUACGGCCGCCACUCGAUGACCUCAUAGUCUGCCUGAGCAGCAGAC [Abebeti] showed apparent KD of MS2 coat protein equal to 140

The sequence AUACAUGAGGAUCACCCAUGUGAUGGCCGGCGAGGACCGGUACGGCCGCCACUCGUGAUCCGUCCUGAAAGCAAAGCUUCCAGCA [Terion] showed apparent KD of MS2 coat protein equal to 437

The sequence AACAUACAAUAAUAGGUGGAUAUAAGGCGGCGAGGACCGGUACGGCCGCCACUCGCGUACAUGAGGAUCACCCAUGUCUGAAACU [Same State - Tryptophan A (Freestyle 3)] showed apparent KD of MS2 coat protein equal to 27

----------
test system: MS2 coat protein; assay: apparent KD of MS2 coat protein; designed switch direction (-1 OFF switch, 1 ON switch): 1; higher = weaker reporter binding; conditions: input ligand: FMN 200 uM
Reported Endpoint: apparent KD of MS2 coat protein (nM)
Use nM as the unit, but write only the number.

The sequence UUCUCACUGGUAGGAUAUGUAGGAUAUGUACAUGAGGAUCACCCAUGUCAGUUAAUGACAGAAGGAUAGAAGGACCACAUCUCU [pwkr ssNG2 2FMN 1F5s.1] (Eterna round: R96, puzzle: Same State NG 2) showed apparent KD of MS2 coat protein equal to 198

The sequence AAUUAAGAUCGAGGAUAUCACGUCGUUUAGACGUGAGAAGGCGAUCAUAACAUGAGGAUCACCCAUGUAUUACAUGAAUUAAUU [SSNG1/4-B3] (Eterna round: R96, puzzle: Same State NG 1) showed apparent KD of MS2 coat protein equal to 20.6

The sequence GGACGUCAUCUCACUGAUUAAACAUGAGGAUCACCCAUGUCAGAGGAUAUGAGUCCGAUUAGGACUCAGAAGGCUGUGACGUCC [Fiskers NG3ss - 46] (Eterna round: R96, puzzle: Same State NG 3) showed apparent KD of MS2 coat protein equal to 19.6

The sequence UUGUUUGGUAAAAUACAUGAGGAUCACCCAUGUUAUGGUGCAGAGGAUAUGCAUGUUUGAUUGUAGCAGAAGGCUGUUUGUUGU [JR_SSNG3_Sub035] (Eterna round: R96, puzzle: Same State NG 3) showed apparent KD of MS2 coat protein equal to 41.5

The sequence UAUCCAUAGAUAGGAUAUUAGUGAACAUGAGGAUCACCCAUGUUUUGCUUGGUUUUAAGCUAAUCUGAGAAGGAUCUUGAUGAA [SameState NG2 #6] (Eterna round: R96, puzzle: Same State NG 2) showed apparent KD of MS2 coat protein equal to 31.5
